# Assay comment: Approximate solubility of starting material in 28 solvents at RT
# Format: physicochemical
# Assay context: 25 °C, organic solvent or mixture, thermodynamic from solid, solvent n-Heptane, RT (25±3° C.), starting material Form A0
Measured quantity: solubility

Prompt: Consider the compound "CNC(=O)c1cc(F)c(-c2nc3cc(C)ccn3c2C[C@H]2CN(C(=O)OC)CCO2)c(F)c1" . State its measured solubility.
Response: < 1900 µg/mL

----------
# Assay comment: Approximate solubility of starting material in 28 solvents at RT
# Assay type: physicochemical
# Assay context: 25 °C, organic solvent or mixture, thermodynamic from solid, solvent Diethyleneglycol, RT (25±3° C.), starting material Form A0
# Protocol: Approximate solubility of starting material (Compound 1, Form A0) was determined in 28 solvents at RT (25±3° C.). ˜2 mg of the starting material was added into each 3-mL glass vial. Solvents were then added stepwise (50/50/200/700 μL per step) into the vials until the solids were dissolved visually or a total volume of 1 mL was reached. Solubility results summarized in Table 2 were used to guide the solvent selection in screening design.
Measured quantity: solubility

Prompt: Consider the compound CNC(=O)c1cc(F)c(-c2nc3cc(C)ccn3c2C[C@H]2CN(C(=O)OC)CCO2)c(F)c1 [Compound 1] . State its measured solubility.
Response: 2400 to 8000 µg/mL

----------
# Assay comment: Approximate solubility of starting material in 28 solvents at RT
# Assay type: physicochemical
# Assay context: 25 °C, organic solvent or mixture, thermodynamic from solid, solvent DMSO, RT (25±3° C.), starting material Form A0
Measured quantity: solubility

Prompt: Consider the molecule CNC(=O)c1cc(F)c(-c2nc3cc(C)ccn3c2C[C@H]2CN(C(=O)OC)CCO2)c(F)c1 [Compound 1] . State its measured solubility.
Response: > 48 mg/mL

----------
# Assay comment: Approximate solubility of starting material in 28 solvents at RT
# Format: physicochemical
# Assay context: 25 °C, organic solvent or mixture, thermodynamic from solid, solvent MEK, RT (25±3° C.), starting material Form A0
Measured quantity: solubility

Prompt: Consider the compound CNC(=O)c1cc(F)c(-c2nc3cc(C)ccn3c2C[C@H]2CN(C(=O)OC)CCO2)c(F)c1 [Compound 1] . State its measured solubility.
Response: 7.7 to 23 mg/mL

----------
# Assay comment: Approximate solubility of starting material in 28 solvents at RT
# Type: physicochemical
# Assay context: 25 °C, organic solvent or mixture, thermodynamic from solid, solvent MeOH, RT (25±3° C.), starting material Form A0
Measured quantity: solubility

Prompt: Consider the compound "CNC(=O)c1cc(F)c(-c2nc3cc(C)ccn3c2C[C@H]2CN(C(=O)OC)CCO2)c(F)c1" . State its measured solubility.
Response: > 44 mg/mL

----------
# Assay comment: Approximate solubility of starting material in 28 solvents at RT
# Type: physicochemical
# Assay context: 25 °C, organic solvent or mixture, thermodynamic from solid, solvent 2-MeTHF, RT (25±3° C.), starting material Form A0
Measured quantity: solubility

Prompt: Consider the compound "CNC(=O)c1cc(F)c(-c2nc3cc(C)ccn3c2C[C@H]2CN(C(=O)OC)CCO2)c(F)c1" . State its measured solubility.
Response: 1800 to 6000 µg/mL

----------
# Assay comment: Approximate solubility of starting material in 28 solvents at RT
# Assay type: physicochemical
# Assay context: 25 °C, organic solvent or mixture, thermodynamic from solid, solvent n-Hexane, RT (25±3° C.), starting material Form A0
Measured quantity: solubility

Prompt: Consider the compound "CNC(=O)c1cc(F)c(-c2nc3cc(C)ccn3c2C[C@H]2CN(C(=O)OC)CCO2)c(F)c1" . State its measured solubility.
Response: < 2200 µg/mL
